# pEC50 listing for each entry below
System: CEM cells HIV-1 protection, formazan growth assay
Assay Overview: NCI AIDS Antiviral Assay
pEC50: −log10 of the molar value.

Consider the worked cases shown below.
Compound	pEC50
CC1=CC(C)(C)C(C#N)(C#N)C(N)=C1C#N	< 3.70
O=C(O)CC(NC(=O)C(F)(F)F)C(=O)NC1Cc2ccccc2OC1=O (stereo not given)	< 3.70
O=c1[nH]cnc2c1ncn2C1CC(O)C(CO)(C(F)(F)F)O1 (stereo not given)	< 3.70
CCCCc1ccc(Nc2nc3c(ncn3C3OC(COC(C)=O)C(OC(C)=O)C3OC(C)=O)c(=O)[nH]2)cc1 (stereo not given)	< 3.70

Which measured pEC50 value corresponds to CCCCCCCC(=O)OC(CBr)COC(=O)C(C)(C)C (stereo not given) ? < 3.60

* * *

Tested on: CEM cells HIV-1 protection, formazan growth assay
Assay Overview: NCI AIDS Antiviral Assay
Condition Set: measured here: growth of uninfected CEM cells
Method: The ability of compounds to protect human CEM cells from HIV-1 infection is measured as a screen for new compounds capable of inhibiting the HIV virus. Five concentrations of drug were tested on uninfected and infected cells and cell growth was measured using a soluble formazan assay. […] Compounds that provided at least 50% protection were retested. Compounds that provided at least 50% protection on retest were listed as moderately active. […]
# log10 IC50 listing for each entry below
Kindly note that the scale is log10 and the underlying IC50 is in µM.

Consider the worked cases shown below.
Compound	Target System	Readout Number
NC(=S)C1=C(N)Oc2c(c(=O)oc3ccccc23)C1c1ccc(Br)cc1 (stereo unspecified)	CEM cells HIV-1 protection, formazan growth assay	2.10
Cc1cc(-c2cscn2)c(O)c([N+](=O)[O-])c1	CEM cells HIV-1 protection, formazan growth assay	1.55
COC(=O)C1=C(C)N2CCOC2CC1c1ccccc1 (stereo unspecified)	CEM cells HIV-1 protection, formazan growth assay	2.13
O=C1C2=C(c3ccccc31)C(c1cccc(Cl)c1)NC(=S)N2 (stereo unspecified)	CEM cells HIV-1 protection, formazan growth assay	1.55
Cc1ccc(/C=C/c2nnc(N/N=C/c3ccc4c(c3)OCO4)[nH]c2=O)cc1	CEM cells HIV-1 protection, formazan growth assay	1.98
COc1cc2c(cc1OC)C1CC(=O)C3=C(CCCC3)N1CC2 (stereo unspecified)	CEM cells HIV-1 protection, formazan growth assay	1.96

Which measured log10 IC50 value corresponds to Nc1nc(SSc2nc(N)nc3c2ncn3C2OC(CO)C(O)C2O)c2ncn(C3OC(CO)C(O)C3O)c2n1 (stereo unspecified) ? -0.47

* * *

Test system: CEM cells HIV-1 protection, formazan growth assay
Assay Overview: NCI AIDS Antiviral Assay
Condition Set: measured here: growth of uninfected CEM cells
# pIC50 listing for each entry below
The scale used: pIC50 is minus the common logarithm of the concentration in molar units.

Smi	pIC50
COc1cccc(/C=C2/Sc3scc(-c4ccccc4)[n+]3C2=O)c1O	4.93

The record that follows has no pIC50 shown yet.
# get_value(readout= pIC50, system= CEM cells HIV-1 protection, formazan growth assay) for O=C(NCCCCCN1CCC2(CCCCC2)CC1)C(C1CCCCC1)C1CCCCC1 5.03

* * *

System: CEM cells HIV-1 protection, formazan growth assay
Assay Overview: NCI AIDS Antiviral Assay
Condition Set: measured here: growth of uninfected CEM cells
Measured Attribute: IC50

Compound	IC50
CC1(C)OC(=O)C2(O1)C(=O)C1CCCCC12 (stereo not given)	> 200 µM

# get_value(readout= IC50, system= CEM cells HIV-1 protection, formazan growth assay) for CNS(=O)(=O)c1c(N)ncn1C > 1100 µM

# get_value(readout= IC50, system= CEM cells HIV-1 protection, formazan growth assay) for Cc1ccc(S(=O)(=O)OCCn2cnc3nc(NC(=O)c4ccccc4)[nH]c(=O)c32)cc1 > 57.5 µM

# get_value(readout= IC50, system= CEM cells HIV-1 protection, formazan growth assay) for O=C(NC(=O)c1ccccc1O)c1ccccc1 > 282 µM

# get_value(readout= IC50, system= CEM cells HIV-1 protection, formazan growth assay) for O=c1[nH]nc(Cc2ccccc2)n1C1CCCC1 > 200 µM

* * *

# IC50 listing for each entry below
Tested on: CEM cells HIV-1 protection, formazan growth assay
Assay Overview: NCI AIDS Antiviral Assay
Condition Set: measured here: growth of uninfected CEM cells

# get_value(readout= IC50, system= CEM cells HIV-1 protection, formazan growth assay) for COC(=S)NP(=O)(NC(=S)OC)NC(=S)OC > 200 µM

* * *

Tested on: CEM cells HIV-1 protection, formazan growth assay
Assay Overview: NCI AIDS Antiviral Assay
Measured Attribute: EC50

Consider the worked cases shown below.
Compound	EC50
Cc1ccc(=O)n(Cc2ccccc2)n1	> 1260 µM
CC1=Nc2ccccc2NC(C)(C)C1	> 955 µM
Nc1ccc(S(=O)(=O)Nc2nccs2)cc1N=Nc1ccccc1[N+](=O)[O-]	> 200 µM
CCC1(CC)COP(=S)(SCCOC(=O)c2ccccc2)OC1	> 200 µM
CC(=O)N1CC[N+](C)(CCCCN2c3ccccc3Sc3cc(N=[N+]=[N-])ccc32)CC1	> 200 µM

Which measured EC50 value corresponds to COc1cc(C2c3cc4c(cc3OC3(OC)COC(=O)C23)OCO4)cc(OC)c1OC (stereo not given) ? > 2 µM

Which measured EC50 value corresponds to Cc1ccc(S(=O)(=O)n2c3c(c4ccccc42)CCN2CCC(Br)C[C@@H]32)cc1 (stereo not given in full) ? > 200 µM

Which measured EC50 value corresponds to COc1ccc(C2OC(N)=C(C#N)C3=C2CCCC3C)cc1OC (stereo not given) ? > 200 µM

Which measured EC50 value corresponds to CC(=O)OCCc1cccnc1/C=N/O ? > 1200 µM

* * *

System: CEM cells HIV-1 protection, formazan growth assay
Assay Overview: NCI AIDS Antiviral Assay
Condition Set: measured here: growth of uninfected CEM cells
Where a SMILES comes first, the peptide text is derived from it.
# IC50 listing for each entry below

Consider the worked cases shown below.
Molecule	IC50
OC1(c2ccccc2)CSc2ncnn21 (configuration not stated)	> 200 µM
Oc1c(OCc2nnc(CCCCCCCCc3nnc(COc4ccc5ccccc5c4O)n3Nc3ccccc3)n2Nc2ccccc2)ccc2ccccc12	> 2 µM
O=S(=O)(c1ccccc1)n1cnc(CCc2ccccc2)n1	> 794 µM
COc1ccc(C)[n+]([O-])n1	> 200 µM
CCC(C)C(NC(=O)C(N)CCCCN)C(=O)NC(CCC(=O)O)C(=O)NC(CO)C(=O)NC(C)C(=O)NC(C(=O)NC(CC(N)=O)C(=O)NC(CC(C)C)C(=O)NC(CO)C(=O)NC(CCC(N)=O)C(=O)O)C(C)O (configuration not stated) (H-KIESATNLSQ-OH; configuration not given here)	> 57.5 µM

Which measured IC50 value corresponds to CN1C(=O)CC2CCCN2C1=O (configuration not stated) ? > 200 µM

Which measured IC50 value corresponds to CC(=O)CCCCCCCCCCCC[C@@H]1CC[C@H](C)[C@H](O)N1 ? > 21.9 µM

* * *

System: CEM cells HIV-1 protection, formazan growth assay
Assay Overview: NCI AIDS Antiviral Assay
Measured Attribute: EC50

Compound	Measured Attribute	Result
COc1nnc(C)c2[nH]c(=S)[nH]c12	EC50	> 457 µM

Which measured EC50 value corresponds to CC(=O)OC[C@H]1O[C@@H](O[C@H]2[C@H](OC(C)=O)C=CO[C@@H]2COC(C)=O)C(OC(C)=O)[C@H]2OC(C)(C)O[C@H]21 (stereo partly drawn) ? > 200 µM

Which measured EC50 value corresponds to CC(=O)NS(=O)(=O)c1ccc(N=Cc2cc(Cl)cc(Cl)c2O)cc1 ? > 200 µM

* * *

Tested on: CEM cells HIV-1 protection, formazan growth assay
Assay Overview: NCI AIDS Antiviral Assay
Condition Set: measured here: growth of uninfected CEM cells
Measured Attribute: pIC50
The scale used: pIC50 is minus the common logarithm of the concentration in molar units.

Consider the worked cases shown below.
Molecule	pIC50
O=C(CCCN1CCC2(CC1)C(=O)NCN2c1ccccc1)c1ccccc1	4.46
OCC1OC(c2cccc3cc(O)c(O)cc23)CC1O (stereo not given)	4.29
O=c1c2cc(S(=O)(=O)Nc3ccccc3)ccc2ncn1NS(=O)(=O)c1ccccc1	4.23
CCOC(=O)c1csc(-c2nc(CCNC(=O)c3ccccc3)sc2Cl)n1	4.35
O=C(NCCc1c[nH]c2ccccc12)C(F)(F)C(F)(F)F	4.42

# get_value(readout= pIC50, system= CEM cells HIV-1 protection, formazan growth assay) for O=c1oc2ccccc2c2nc3c([N+](=O)[O-])cccc3cc12 5.09

# get_value(readout= pIC50, system= CEM cells HIV-1 protection, formazan growth assay) for O=c1[nH]c(=S)[nH]c2c1CN(CCCN1CCOCC1)CN2 4.31

# get_value(readout= pIC50, system= CEM cells HIV-1 protection, formazan growth assay) for CN(C)/N=C(/c1nc2ccc([N+](=O)[O-])cc2[nH]c1=O)C(O)c1ccco1 (stereo not given) 3.72

# get_value(readout= pIC50, system= CEM cells HIV-1 protection, formazan growth assay) for CSc1nnc2sc3cc(C)ccc3n12 3.91

# get_value(readout= pIC50, system= CEM cells HIV-1 protection, formazan growth assay) for O=C(Nc1ccccc1)NC(CSSCC(NC(=O)Nc1ccccc1)C(=O)O)C(=O)O (stereo not given) 5.14

# get_value(readout= pIC50, system= CEM cells HIV-1 protection, formazan growth assay) for C=C1CC(COc2ccc3ccc(=O)oc3c2)(c2ccccc2)OC1=O (stereo not given) 6.14

Data origin: PubChem BioAssay AID179
